Values were extracted from patent US20260109776A1.

Kindly state pKd for each of the entries shown.
# TESTED_TARGET: human CD40 (human, UniProt P25942 21-193, limits assumed)
# Sequence (P25942 21-193 limits assumed): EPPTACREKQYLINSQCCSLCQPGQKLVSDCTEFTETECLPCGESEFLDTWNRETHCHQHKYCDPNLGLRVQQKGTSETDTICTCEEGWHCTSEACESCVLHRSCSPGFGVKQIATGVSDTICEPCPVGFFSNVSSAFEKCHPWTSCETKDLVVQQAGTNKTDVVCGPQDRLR
# ASSAY_DETAILS: Octet
Give bare numbers, as −log10 of the molar value.

Items follow; give pKd for each.
1. 36F3 (antibody, IgG4, V domains shown, also called 4891-1) VH: QVQLQQSGPGLVKPSQTLSLTCAISGDSVSSSRTAWNWIRQSPSRGLEWLGRTYYRSKWYHDYSVSVKSRITIDPDTSKNQFSLQLNSVTPEDTAVYYCARGAAPFDYWGQGTLVTVSS VL: EIVLTQSPGTLSLSPGERATLSCRASQSVSSNYLAWYQQKPGQAPRALIYAASNRAAGISDRFSGSGSGTDFTLTISRLEPEDFAVYFCQQYGSSPLTFGGGTKVEIKR
2. 33H9 (antibody, IgG4, V domains shown, also called 4897-1) VH: QVQLVESGGGVVQPGRSLRLSCAASGFTFSSHGMHWVRQPPGKGLEWVAVIWYDGSNEYYGDSVKGRFTISRDNSKNTLYLQMNSLRVEDTAVYYCTRGGGHWNYEGHYYGMDVWGQGTTVTVSS VL: QAVPTQPSSLSASPGASASLTCTLRSGINVGSSRIYWYQQKPGSPPQFLLRYTSDSDKLQGSGVPSRFSGSKDASANAGLLLISGLQSEDEADYYCMIWHSSAVVFGGGTKLTVLG

[8.16, 9.24]

Annotate the binder 37A6 (antibody, IgG4, V domains shown, also called 4865-1) VH: QVQLVESGGGLVKPGGSLRLSCAASEFTFSDYYMSWIRQAPGKGLEWVSYISRSGDTIYYADSVKGRFTISRDNAKNSLYLQMNGLRAEDTAVYYCARDLAAGATGGLDCWGQGTLVTVSS VL: SYELTQPPSVSVSPGQTASITCSGERLGNKYICWYQQKPGQSPVLVIYQDFKRPSGIPERFSGSNSGITATLTISGTQAMDEADYYCQAWDSRTVVFGGGTKLTVLG with its measured pKd.
8.96
